Test system: HeLa cells
Details: concentration causing 50% reduction in cell metabolism, Alamar Blue assay, HeLa
Catalogue of log10(CC5) readings, one per entry.
quantity-kind: log10(CC5) (log10 of the value in µM)

- CN(C)c1nc(N)c(C(=O)N=C(N)N)nc1Cl: 2.28
- N/C(=N\C(=O)c1nc(Cl)c(N)nc1N)NCc1ccc(Cl)c(Cl)c1: 1.15
- CC(C)CN(C)c1nc(N)c(C(=O)N=C(N)N)nc1Cl: 1.40
- N=C(NCc1ccc(Cl)cc1Cl)NC(=O)c1nc(Cl)c(N)nc1N: 1.15
- N/C(=N\C(=O)c1nc(Cl)c(N)nc1N)NCc1ccccc1: 2.00
- CCN(c1nc(N)c(C(=O)N=C(N)N)nc1Cl)C(C)C [EIPA, 5-(N-ethyl-N-isopropyl)amiloride]: 1.40
- CNC(N)=NC(=O)c1cc(Cl)ccc1O: 2.19
